B1: glmS ribozyme (parent)
chain: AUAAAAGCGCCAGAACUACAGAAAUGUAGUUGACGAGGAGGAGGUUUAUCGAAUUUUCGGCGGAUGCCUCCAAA

Variants of: B1
run.description: self-cleavage kobs at 40 uM GlcN6P; higher = faster cleavage; RNA array
condition.notes: with glucosamine-6-phosphate
Fewer inactive variants are shown than the library holds.
# self-cleavage kobs at 40 uM GlcN6P values compiled below

* G9C C67G | < 1e-05 s⁻¹
* C8U A33C | < 1e-05 s⁻¹
* A14U G66A | 0.000107 s⁻¹
* G38C U55A G63U | < 1e-05 s⁻¹
* C8G C61A | < 1e-05 s⁻¹

Query string: Given C11U C50G C68G , state its recorded self-cleavage kobs at 40 uM GlcN6P.
Result string: 6.75e-05 s⁻¹

Query string: Would you kindly repeat that for A6G A42C C71U ?
Result string: < 1e-05 s⁻¹

Query string: Would you kindly repeat that for U46G U49C ?
Result string: < 1e-05 s⁻¹

Query string: Would you kindly repeat that for G44C U69G ?
Result string: < 1e-05 s⁻¹

Query string: Would you kindly repeat that for C10U G32C C68A ?
Result string: < 1e-05 s⁻¹

Query string: Would you kindly repeat that for C11U U30C A52C ?
Result string: < 1e-05 s⁻¹

# credit: the supplement of paper PMC7125110
